Data credit: ChEMBL document CHEMBL1141509

The following compounds are listed with their measured IC50 values.
Molecular target: RAC-alpha serine/threonine-protein kinase (Homo sapiens, UniProt P31749)
Sequence (P31749 whole entry): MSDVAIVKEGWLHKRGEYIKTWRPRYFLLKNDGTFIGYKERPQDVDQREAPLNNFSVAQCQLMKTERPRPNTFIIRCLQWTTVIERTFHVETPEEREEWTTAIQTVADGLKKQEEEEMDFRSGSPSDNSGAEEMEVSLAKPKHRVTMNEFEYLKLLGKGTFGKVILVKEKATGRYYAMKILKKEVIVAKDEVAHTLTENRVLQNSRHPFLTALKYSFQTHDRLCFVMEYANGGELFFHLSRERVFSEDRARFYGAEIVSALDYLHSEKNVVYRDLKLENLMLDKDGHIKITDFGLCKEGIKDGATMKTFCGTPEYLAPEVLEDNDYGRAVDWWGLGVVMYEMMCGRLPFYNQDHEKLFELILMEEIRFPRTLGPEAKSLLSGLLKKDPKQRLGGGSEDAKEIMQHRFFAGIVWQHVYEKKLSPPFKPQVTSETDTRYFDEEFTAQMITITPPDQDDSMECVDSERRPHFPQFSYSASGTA
Experiment: Inhibition of human Akt1 in human C33A cells by immunoprecipitation kinase assay
Assay type: cell-based, C-33-A
Reply with just the number (in nM).

Some compounds with recorded IC50:
- STRUCTURE_STRING: "COc1ncc2cc(-c3ccccc3)c(-c3ccc(CN4CCC(c5nnc(-c6ccccn6)[nH]5)CC4)cc3)nc2n1"
  TARGET_SYSTEM: "RAC-alpha serine/threonine-protein kinase (Homo sapiens, UniProt P31749)"
  IC50, nM: 42.6
- STRUCTURE_STRING: "NC(=O)c1ncc2cc(-c3ccccc3)c(-c3ccc(CN4CCC(c5nnc(-c6ccccn6)[nH]5)CC4)cc3)nc2n1"
  TARGET_SYSTEM: "RAC-alpha serine/threonine-protein kinase (Homo sapiens, UniProt P31749)"
  IC50, nM: 96.4
- STRUCTURE_STRING: "CSc1ncc2cc(-c3ccccc3)c(-c3ccc(CN4CCC(c5cc(-c6ccncc6)[nH]n5)CC4)cc3)nc2n1"
  TARGET_SYSTEM: "RAC-alpha serine/threonine-protein kinase (Homo sapiens, UniProt P31749)"
  IC50, nM: 85
- STRUCTURE_STRING: "CSc1ncc2cc(-c3ccccc3)c(-c3ccc(CN4CCC(C(N)=O)CC4)cc3)nc2n1"
  TARGET_SYSTEM: "RAC-alpha serine/threonine-protein kinase (Homo sapiens, UniProt P31749)"
  IC50, nM: 560
- STRUCTURE_STRING: "CSc1ncc2cc(-c3ccccc3)c(-c3ccc(CN4CCC(n5ncc6c(N)ncnc65)CC4)cc3)nc2n1"
  TARGET_SYSTEM: "RAC-alpha serine/threonine-protein kinase (Homo sapiens, UniProt P31749)"
  IC50, nM: 60
- STRUCTURE_STRING: "CNc1ncc2cc(-c3ccccc3)c(-c3ccc(CN4CCC(c5nnc(-c6ccccn6)[nH]5)CC4)cc3)nc2n1"
  TARGET_SYSTEM: "RAC-alpha serine/threonine-protein kinase (Homo sapiens, UniProt P31749)"
  IC50, nM: 20.3

IN: Return IC50 measured with RAC-alpha serine/threonine-protein kinase (Homo sapiens, UniProt P31749) given this compound: CSc1ncc2cc(-c3ccccc3)c(-c3ccc(CN4CCC(c5nnc(N)s5)CC4)cc3)nc2n1
OUT: 79

IN: How about this compound: N#Cc1ncc2cc(-c3ccccc3)c(-c3ccc(CN4CCC(c5nnc(-c6ccccn6)[nH]5)CC4)cc3)nc2n1
OUT: 100

IN: Try this compound too: CCNC(=O)NC1CCN(Cc2ccc(-c3nc4nc(SC)ncc4cc3-c3ccccc3)cc2)CC1
OUT: 795

IN: Similarly, CSc1ncc2cc(-c3ccccc3)c(-c3ccc(CN4CCC(c5nnc(-c6ccccn6)[nH]5)CC4)cc3)nc2n1 ?
OUT: 9.3

IN: Can you handle CSc1ncc2cc(-c3ccccc3)c(-c3ccc(CN4CCC(C(=O)Nc5ccncc5)CC4)cc3)nc2n1 next?
OUT: 133

IN: Next record, please: Nc1ncnc2nc(-c3ccc(CN4CCC(n5ncc6c(N)ncnc65)CC4)cc3)c(-c3ccccc3)cc12
OUT: 295
